Data origin: paper PMC8006935

For each of the compounds below, state its pIC50.
Tested on: T-98 (Temozolomide resistant) Glioma cell lines
test_details: Sulforhodamine B assay, T-98 TMZ resistant Glioma cells
Format: cell-based
settings: Glioma cell, 72 h, SRB, Mean ± Standard Deviations in Table 4; read-out: T-98/TMZRES IC50
The value called pIC50 is obtained by taking minus log10 of the concentration in mol/L.

Incoming: Tell me the measured pIC50 of "O=C(NN=Cc1ccccc1Cl)c1cccc2c(=O)c3ccccc3[nH]c12" , please.
Outgoing: 5.98

Incoming: Now consider "CC(=NNC(=O)c1cccc2c(=O)c3ccccc3[nH]c12)c1ccccc1O" and answer again.
Outgoing: 6.12

Incoming: Next up: "O=C(NN=CC=Cc1ccccc1)c1cccc2c(=O)c3ccccc3[nH]c12"
Outgoing: 5.82

====

Assignment: determine reported T-98/TMZRES SI for the given compounds.
Test system: T-98 (Temozolomide resistant) Glioma cell lines
test_details: Sulforhodamine B assay, T-98 TMZ resistant Glioma cells
Format: cell-based
settings: SI = CC50 of Vero cell line /IC50 of Cancer cell line after 72 h
// response body must contain only the number

Incoming: Give the measured T-98/TMZRES SI of "O=C(NN=Cc1ccccc1Cl)c1cccc2c(=O)c3ccccc3[nH]c12" .
Outgoing: 45.87

Incoming: What do you have for "CC(=NNC(=O)c1cccc2c(=O)c3ccccc3[nH]c12)c1ccccc1O" ?
Outgoing: 86.94

Incoming: Try this compound next: "Cn1nnc2c(C(N)=O)ncn2c1=O"
Outgoing: 2.53

Incoming: Let us now turn to "O=C(NN=CC=Cc1ccccc1)c1cccc2c(=O)c3ccccc3[nH]c12"
Outgoing: 36.73

====

test_details: Sulforhodamine B assay, Vero control cells
Format: cell-based
settings: African green monkey, Vero cells (normal kidney epithelial cells), SRB, read-out: Vero cell Line CC50
quantity_name: CC50 at 72 h (µM)
Express your answer in µM, writing the number without its unit.

Incoming: For the compound shown here, "O=C(NN=CC=Cc1ccccc1)c1cccc2c(=O)c3ccccc3[nH]c12" , give the reported CC50 at 72 h.
Outgoing: 56.2

Incoming: Again, but for "Cn1nnc2c(C(N)=O)ncn2c1=O"
Outgoing: 482

Incoming: Same question for "O=C(NN=Cc1ccccc1Cl)c1cccc2c(=O)c3ccccc3[nH]c12" please.
Outgoing: 48.2

Incoming: And the next one, "CC(=NNC(=O)c1cccc2c(=O)c3ccccc3[nH]c12)c1ccccc1O" ?
Outgoing: 66.1

====

Field: pKa. Provide a value for each of the compounds that follow.
test_details: pKa by UV-Vis spectrophotometer
Type: physicochemical
// print number alone

Incoming: Quick check: pKa of CC(=NNC(=O)c1cccc2c(=O)c3ccccc3[nH]c12)c1ccccc1O [AC26] ?
Outgoing: 6.52

Incoming: Likewise for O=C(NN=Cc1ccccc1Cl)c1cccc2c(=O)c3ccccc3[nH]c12 [AC7] ?
Outgoing: 9.23

Incoming: Again, but for O=C(NN=CC=Cc1ccccc1)c1cccc2c(=O)c3ccccc3[nH]c12 [AC2]
Outgoing: 8.03
